test: Pharmacokinetic study (PK), i.v. in rats; type: in vivo; settings: rat, blood, iv, 2 mg/kg i.v., mean
value.type: Tmax (min)
State the answer as a number, implicitly in min.

Query: I have this compound here, O=C(Nc1ccc([N+](=O)[O-])cc1Cl)c1cc(Cl)ccc1OC1OC(CO)C(O)C(O)C1O (stereo not shown) [MPT0L167] , and I need its recorded Tmax.
Response: 1.8

###

assay: Pharmacokinetic study (PK), i.v. in rats; format: in vivo; conditions: rat, blood, iv, 2 mg/kg i.v., mean, read-out: VZ obs
value.type: Vd (L/kg)
Your answer should be a plain number; it is taken to be in L/kg.

Query: Which Vd is listed for O=C(Nc1ccc([N+](=O)[O-])cc1Cl)c1cc(Cl)ccc1OC1OC(CO)C(O)C(O)C1O (stereo not shown) ?
Response: 37.3
